System: Staphylococcus epidermidis 1228
Below: a set of entries, each annotated with reported MIC.
Only the number, expressed in µg/mL, is required.

The examples below pair each entry with its known result.
# Compound, MIC [µg/mL]
records = [
    ("CC(=O)NC=C[S+]([O-])C1=C(C(=O)O)N2C(=O)C(C(C)(C)OS(=O)(=O)O)C2C1 (stereo not shown)", 6.25),
    ("CC1(C)S[C@@H]2[C@H](NC(=O)[C@H](N)c3ccccc3)C(=O)N2[C@H]1C(=O)O [AB-Pc, aminobenzyl penicillin, reference compound]", 0.78),
    ("CO[C@@]1(NC(=O)Cc2cccs2)C(=O)N2C(C(=O)O)=C(COC(N)=O)CS[C@@H]21 [CFX, cefoxitin, reference compound]", 1.56),
]

Please turn your attention to the following entry.
Item CC(=O)NC=C[S+]([O-])C1=C(C(=O)O)N2C(=O)C(C(C)(C)O)C2C1 (stereo not shown) has what recorded MIC?
0.78
